Every entry's value here was drawn from ChEMBL document CHEMBL1201862.

test system: DMS-273; test: NCI tumour cell line growth inhibition, 48 h
Calls of active or inactive are those of the source. Cut-off read from the data, not from the text of the source: active = GI50 up to about 1.1 µM and inactive = higher.
The reply should name one outcome from active, inactive

Examples from the recorded data:
CCOC(OC1=C(C#N)CCCC1)C(CC)[Se]c1ccccc1 (configuration not stated); inactive
NC(=O)c1csc(C2CCC(CO)O2)n1 (configuration not stated); inactive
COc1cc2c(cc1OC)C(C#N)N(C(=O)c1ccccc1)C=C2OC(=O)c1ccccc1 (configuration not stated); inactive

Call for entry O=P(O)(O)C1CCCC(P(=O)(O)O)N1 (configuration not stated) :
inactive

Call for entry O=C(CSc1nc(-c2ccccc2)c(-c2ccccc2)[nH]1)NNC(=S)Nc1ccccc1 :
inactive

Call for entry COC(=O)C12CC3CC(CC(C(=O)O)(C3)C1)C2 :
inactive

Call for entry COc1cc2c(oc(=O)c3c4oc([Si](C)(C)C)cc4cc(OC)c23)c2cccc(O)c12 :
inactive

Call for entry CC(C)CC12CC3CCC(CNC1=O)C32C (configuration not stated) :
inactive
